# SYSTEM_UNDER_TEST: T1, full-length recombinant mouse PAD4 (mouse, UniProt Q9Z183 1-666)
# T1 construct: mature; Full-length recombinant
# MEASUREMENT_PROTOCOL: ELISA, coated mouse PAD4; antibody 1 ug/mL
ENDPOINT_NAME: OD 490/630 nm

# BINDER, ENDPOINT_NAME, VALUE_MEASURED
data = [
    ("G8 (antibody, V domains shown, Chicken variable regions in a mouse chimeric antibody (IgG1); also called anti-PAD4 antibody G8) VH: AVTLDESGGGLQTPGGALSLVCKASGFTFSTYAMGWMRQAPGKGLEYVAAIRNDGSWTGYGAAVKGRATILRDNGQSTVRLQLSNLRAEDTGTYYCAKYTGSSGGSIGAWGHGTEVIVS VL: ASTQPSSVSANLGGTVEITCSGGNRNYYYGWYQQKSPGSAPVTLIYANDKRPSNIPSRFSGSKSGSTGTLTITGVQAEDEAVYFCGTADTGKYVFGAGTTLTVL", "OD 490/630 nm", 2.26),
    ("A11 (antibody, V domains shown, Chicken variable regions in a mouse chimeric antibody (IgG1); also called anti-PAD4 antibody A11) VH: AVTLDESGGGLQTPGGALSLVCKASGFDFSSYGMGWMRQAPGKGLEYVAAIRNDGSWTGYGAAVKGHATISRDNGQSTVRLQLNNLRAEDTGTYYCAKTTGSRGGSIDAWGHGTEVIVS VL: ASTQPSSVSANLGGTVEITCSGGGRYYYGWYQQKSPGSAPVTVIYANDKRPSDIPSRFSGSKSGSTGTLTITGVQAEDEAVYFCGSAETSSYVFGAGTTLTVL", "OD 490/630 nm", 2.24),
    ("G6 (antibody, V domains shown, Chicken variable regions in a mouse chimeric antibody (IgG1); also called anti-PAD4 antibody G6) VH: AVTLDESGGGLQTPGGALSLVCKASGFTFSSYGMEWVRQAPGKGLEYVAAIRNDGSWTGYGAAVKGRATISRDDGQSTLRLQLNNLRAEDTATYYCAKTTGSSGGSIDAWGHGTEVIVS VL: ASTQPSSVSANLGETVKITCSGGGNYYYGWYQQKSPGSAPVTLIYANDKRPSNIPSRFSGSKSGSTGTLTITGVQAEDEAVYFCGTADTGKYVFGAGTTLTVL", "OD 490/630 nm", 2.27),
]
